Run description: self-splicing fitness, log relative to wild type (ln ratio); higher = more splicing; Tetrahymena group I intron in knt gene, E. coli kanamycin selection, DiMSum; sequences stand for … in CUCUCU…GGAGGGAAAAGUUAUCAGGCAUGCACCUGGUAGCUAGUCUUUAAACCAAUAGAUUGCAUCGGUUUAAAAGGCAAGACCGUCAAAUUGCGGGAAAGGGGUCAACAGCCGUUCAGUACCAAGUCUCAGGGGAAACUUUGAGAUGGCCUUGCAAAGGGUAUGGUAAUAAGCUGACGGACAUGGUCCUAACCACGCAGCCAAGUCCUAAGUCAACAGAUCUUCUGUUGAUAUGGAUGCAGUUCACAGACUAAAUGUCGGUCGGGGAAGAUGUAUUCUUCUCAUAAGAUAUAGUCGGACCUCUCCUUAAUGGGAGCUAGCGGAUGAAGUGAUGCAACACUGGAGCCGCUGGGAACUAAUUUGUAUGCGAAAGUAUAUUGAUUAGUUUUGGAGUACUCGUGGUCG;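 further: selection with 25 µg/mL kanamycin versus none on LB agar overnight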
Particulars: 37 °C
Kind request: treat -2 as inclusive, so self-splicing fitness (ln) at -2 or higher is T, anything lower is F.

1. CUAGAGCAAUAUUACGACUC; T
2. UGCUAGCAAUAUUACGGAUC; T
3. CCCUAGCAAUAUUACGGGGG; F
4. CAACAGCAAUAUUACGGACC; T
5. GCUGAGCAAUAUUACGUGUC; T
6. GUAUAGCAAUAUUACGGGGC; T
7. UUUCAGCAAUAUUACGUAGU; F
8. CGAAAGCAAUAUUACGCGUU; F
9. GUCUAGCAAUAUUACGUCGG; F
10. UUUAAGCAAUAUUACGUAUU; T
11. ACCCAGCAAUAUUACGGGUA; T
12. AGCUAGCAAUAUUACGUGUU; F

---

Run description: self-splicing fitness, log relative to wild type (ln ratio); higher = more splicing; Tetrahymena group I intron in knt gene, E. coli kanamycin selection, DiMSum; sequences stand for … in CUCUCU…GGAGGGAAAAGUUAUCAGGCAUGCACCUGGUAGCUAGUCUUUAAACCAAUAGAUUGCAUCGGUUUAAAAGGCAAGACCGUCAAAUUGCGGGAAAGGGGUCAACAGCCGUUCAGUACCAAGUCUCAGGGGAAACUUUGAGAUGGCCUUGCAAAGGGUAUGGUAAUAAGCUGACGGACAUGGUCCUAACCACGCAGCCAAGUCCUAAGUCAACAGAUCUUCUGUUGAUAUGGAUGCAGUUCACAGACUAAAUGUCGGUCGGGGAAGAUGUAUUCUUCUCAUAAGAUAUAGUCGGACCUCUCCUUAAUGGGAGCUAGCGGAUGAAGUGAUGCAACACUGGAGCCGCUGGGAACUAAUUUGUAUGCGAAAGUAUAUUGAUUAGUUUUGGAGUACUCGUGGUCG
Particulars: 37 °C
Observed property: self-splicing fitness (ln)

1) AGAGAGCAAUAUUACGACCA; -0.796
2) UGGGAGCAAUAUUACGUACU; -2.02
3) AAGCAGCAAUAUUACGACUA; -0.791
4) GUUAAGCAAUAUUACGUGUC; -0.788
5) CAGAAGCAAUAUUACGCUGA; -1.98

---

Below: a set of entries, each annotated with reported self-splicing fitness (ln).
Run description: self-splicing fitness, log relative to wild type (ln ratio); higher = more splicing; Tetrahymena group I intron in knt gene, E. coli kanamycin selection, DiMSum; sequences stand for … in CUCUCU…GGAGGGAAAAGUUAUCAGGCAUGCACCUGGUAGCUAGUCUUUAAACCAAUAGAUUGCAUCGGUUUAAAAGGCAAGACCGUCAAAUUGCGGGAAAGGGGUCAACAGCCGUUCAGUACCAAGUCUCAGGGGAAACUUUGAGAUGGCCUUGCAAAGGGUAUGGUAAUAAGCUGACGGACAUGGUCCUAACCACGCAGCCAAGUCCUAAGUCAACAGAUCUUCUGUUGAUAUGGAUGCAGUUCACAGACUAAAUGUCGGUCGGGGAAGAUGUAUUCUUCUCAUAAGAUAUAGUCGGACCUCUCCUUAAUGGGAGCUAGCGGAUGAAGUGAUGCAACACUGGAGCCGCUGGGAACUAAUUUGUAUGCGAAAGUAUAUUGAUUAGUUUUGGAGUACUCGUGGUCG
Particulars: 30 °C
Observed property: self-splicing fitness (ln)

1. GUAUAGCAAUAUUACGCCAU; -2.96
2. CCUAAGCAAUAUUACGUAAC; -2.97
3. UCACAGCAAUAUUACGAUCC; -3.08

---

Below: a set of entries, each annotated with reported self-splicing fitness (ln).
Run description: self-splicing fitness, log relative to wild type (ln ratio); higher = more splicing; Tetrahymena group I intron in knt gene, E. coli kanamycin selection, DiMSum; sequences stand for … in CUCUCU…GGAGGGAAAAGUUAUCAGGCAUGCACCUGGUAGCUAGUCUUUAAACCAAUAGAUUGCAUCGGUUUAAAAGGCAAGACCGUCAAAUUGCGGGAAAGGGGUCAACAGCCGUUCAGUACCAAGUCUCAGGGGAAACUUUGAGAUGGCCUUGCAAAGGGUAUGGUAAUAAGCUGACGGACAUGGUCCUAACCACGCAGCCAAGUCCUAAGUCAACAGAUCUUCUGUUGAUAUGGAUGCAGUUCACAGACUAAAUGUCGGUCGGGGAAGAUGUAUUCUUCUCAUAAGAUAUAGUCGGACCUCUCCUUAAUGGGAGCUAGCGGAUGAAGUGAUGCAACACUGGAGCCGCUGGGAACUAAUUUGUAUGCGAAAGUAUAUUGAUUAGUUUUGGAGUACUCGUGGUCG
Particulars: 30 °C
Observed property: self-splicing fitness (ln)

1. AAAAAGCAAUAUUACGCAUC; -2.24
2. UCCCAGCAAUAUUACGAUUA; -1.71
3. AUCAAGCAAUAUUACGACGG; -3.8
4. GCAAAGCAAUAUUACGACUG; -1.3
5. CGGCAGCAAUAUUACGGAAU; -5.35
6. UCCCAGCAAUAUUACGAUCC; -1.93
7. CCAGAGCAAUAUUACGCUUC; -3.48
8. AACCAGCAAUAUUACGUAUU; -1.79
9. CACCAGCAAUAUUACGUCUG; -1.55
10. AUUGAGCAAUAUUACGGGAC; -3.28

---

Below: a set of entries, each annotated with reported self-splicing fitness (ln).
Run description: self-splicing fitness, log relative to wild type (ln ratio); higher = more splicing; Tetrahymena group I intron in knt gene, E. coli kanamycin selection, DiMSum; sequences stand for … in CUCUCU…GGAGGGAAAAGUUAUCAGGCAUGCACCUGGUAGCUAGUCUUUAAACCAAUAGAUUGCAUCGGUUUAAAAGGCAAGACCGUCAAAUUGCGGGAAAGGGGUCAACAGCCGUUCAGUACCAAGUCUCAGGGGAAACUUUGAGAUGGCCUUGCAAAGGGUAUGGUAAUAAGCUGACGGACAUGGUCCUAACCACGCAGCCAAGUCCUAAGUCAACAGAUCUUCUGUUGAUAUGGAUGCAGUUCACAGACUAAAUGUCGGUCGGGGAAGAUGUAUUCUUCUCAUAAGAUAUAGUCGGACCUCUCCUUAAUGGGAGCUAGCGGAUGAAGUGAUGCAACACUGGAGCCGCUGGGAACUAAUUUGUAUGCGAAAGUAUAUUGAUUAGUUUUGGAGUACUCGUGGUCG
Particulars: 30 °C
Observed property: self-splicing fitness (ln)

1) CCGAAGCAAUAUUACGUGCC; -2.83
2) GCUGAGCAAUAUUACGUAAA; -2.97
3) CUCUAGCAAUAUUACGAUGC; -1.49
4) GGCGAGCAAUAUUACGACCU; -0.951
5) CUGGAGCAAUAUUACGGCAA; -2.52
6) CGAUAGCAAUAUUACGAUGA; -1.8
7) AUAGAGCAAUAUUACGUUUU; -1.43
8) GCACAGCAAUAUUACGUUCC; -1.85
9) AGAGAGCAAUAUUACGCACA; -3.27
10) CUUUAGCAAUAUUACGUUAU; -3.64
11) CUGUAGCAAUAUUACGUGGA; -3.85
12) GGCAAGCAAUAUUACGCGUA; -0.585
13) GGGUAGCAAUAUUACGAUAA; -1.67
14) CUACAGCAAUAUUACGUGGA; -2.58
15) UACGAGCAAUAUUACGUCAU; -4.92
16) GCACAGCAAUAUUACGACGC; -0.317
17) AAGUAGCAAUAUUACGGGUA; -1.49
18) CGAAAGCAAUAUUACGCUCU; -2.56
19) GCCAAGCAAUAUUACGGAUA; -0.904
20) UGAUAGCAAUAUUACGUCUU; -1.22
21) AGUUAGCAAUAUUACGUGUA; -2.26
22) ACGCAGCAAUAUUACGUCUU; -1.36
23) CGCCAGCAAUAUUACGAUGU; -2.9
24) UCGUAGCAAUAUUACGCGGG; -3.63
25) AUGGAGCAAUAUUACGCCCA; -1.95
26) AACUAGCAAUAUUACGUUCC; -2.63
27) UCUGAGCAAUAUUACGUGGU; -2.58
28) CCACAGCAAUAUUACGCCAG; -2.56
29) CUAAAGCAAUAUUACGAAAA; -3.34
30) GGCUAGCAAUAUUACGGGAU; -1.89
31) CAUUAGCAAUAUUACGCGGC; -3.98
32) ACGGAGCAAUAUUACGGUUC; -4.29
33) UAUGAGCAAUAUUACGCUCA; -2.45
34) CACCAGCAAUAUUACGCCUC; -3.14
35) CACGAGCAAUAUUACGUCAC; -3.41
36) UUGCAGCAAUAUUACGUCUG; -3.23
37) AGACAGCAAUAUUACGUCAU; -2.86
38) GAGGAGCAAUAUUACGUGCG; -2.06
39) GCAAAGCAAUAUUACGCUUC; -4.15
40) GGAAAGCAAUAUUACGUUUG; -3.17
41) CGUGAGCAAUAUUACGCCUA; -1.86
42) GGGUAGCAAUAUUACGAUGU; -0.794
